pKd values, listed per item
target: T1, baboon EL (baboon); test: Biacore; EL captured by anti-C2-tag Ab; bivalent fit
T1 construct: Heparin extract
Please keep in mind that pKd is minus log10 of the molar concentration; only the number is needed.

Some solved cases for reference:
• 13B3 (antibody, mouse IgG2a, V domains shown, mouse IgG2a from hybridoma; also called 13B3 (mouse mAb)) VH: EVQLQQSGPELLKPGASVKISCKASGYTFTEYTMHWVKQSHGKSLEWIGSINPYYGGTSYNEKFKDKATLTVDKSSNTAYMEFRSLTSEDCAVYYCARYGNYVGYFDYWGQGTTLTVSS VL: ENVLTQSPAIMSASLGEKVTMSCRASSSVHYMYWYQQKSDASPKLWIYYTSNLAPGVPDRFSGSGSGNSYSLTISSMEGEDAATYYCQQFTSSPYTFGGGTKLEIK = 8.29
• 55A1 (antibody, mouse IgG2a, V domains shown, mouse IgG2a from hybridoma; also called 55A1 (mouse mAb)) VH: QIHLVQSGPELKKPGETVKISCKASGYTFTNYGMNWVKQAPGKGLKWMGWINTYSGVPTYAGDFKGRFAFSLETSASTAYLQINNLKNEDTATYFCARRGYYGRRYFDVWGTGTTVTVSS VL: DIVLTQSPASLAVSLGQRATISCKASQSVDYDVDSYMHWYQQKPGQPPKLLIYAASNLASGIPARFSGGGSGTDFTLNIHPVEEEDVATYYCQQTIEDPPTFGGGTKLEIK = 8.92

Moving on to another binder below.
The binder listed as 14E1 (antibody, mouse IgG1, V domains shown, mouse IgG1 from hybridoma) VH: QVQLQQSGAELVKPGASVRLSCKASGYTFTKYTIHWVKQRSGQGLEWIGWFYPGSDSIKYNEKFKDKATLTADKSSRTVYMELSRLTSEDSAVYFCARHEEYTNSLAYWGQGTLVTVSA VL: DIQMTQTTSSLSASLGDRVTISCRASQDISNYLNWYQQQPDGTVKLLIYYTSRLHSGVPSRFSGSGSGTDYSLTISNLEQEDIATYFCQQGYTLPWTFGGGTNLEIK shows pKd equal to 8.24
